Each recorded value in this set is attributed to ChEMBL document CHEMBL3351955.

Observed IC50 for Matrix metalloproteinase-14 (Homo sapiens, UniProt P50281), reported per entry below.
Could you give me the number in µM? Just the number is fine.

>  <Compound>
C[C@@]1(O)CCCN(S(=O)(=O)c2ccc(OCc3ccc(F)cc3Cl)cc2)[C@H]1C(=O)NO

>  <Observed Result>
0.15

$$$$
>  <Compound>
Cn1nccc1[C@]1(CNC(=O)c2cc3cc(Cl)ccc3o2)NC(=O)NC1=O

>  <Observed Result>
8.6

$$$$

With those in mind, consider the next compound.
Summary line: Cc1cccnc1[C@]1(CNC(=O)c2cc3cc(Cl)ccc3o2)NC(=O)NC1=O (racemic) , Matrix metalloproteinase-14 (Homo sapiens, UniProt P50281), reported IC50 = 18

====

Assayed Target: 72 kDa type IV collagenase (Homo sapiens)
Sequence (P08253 whole entry): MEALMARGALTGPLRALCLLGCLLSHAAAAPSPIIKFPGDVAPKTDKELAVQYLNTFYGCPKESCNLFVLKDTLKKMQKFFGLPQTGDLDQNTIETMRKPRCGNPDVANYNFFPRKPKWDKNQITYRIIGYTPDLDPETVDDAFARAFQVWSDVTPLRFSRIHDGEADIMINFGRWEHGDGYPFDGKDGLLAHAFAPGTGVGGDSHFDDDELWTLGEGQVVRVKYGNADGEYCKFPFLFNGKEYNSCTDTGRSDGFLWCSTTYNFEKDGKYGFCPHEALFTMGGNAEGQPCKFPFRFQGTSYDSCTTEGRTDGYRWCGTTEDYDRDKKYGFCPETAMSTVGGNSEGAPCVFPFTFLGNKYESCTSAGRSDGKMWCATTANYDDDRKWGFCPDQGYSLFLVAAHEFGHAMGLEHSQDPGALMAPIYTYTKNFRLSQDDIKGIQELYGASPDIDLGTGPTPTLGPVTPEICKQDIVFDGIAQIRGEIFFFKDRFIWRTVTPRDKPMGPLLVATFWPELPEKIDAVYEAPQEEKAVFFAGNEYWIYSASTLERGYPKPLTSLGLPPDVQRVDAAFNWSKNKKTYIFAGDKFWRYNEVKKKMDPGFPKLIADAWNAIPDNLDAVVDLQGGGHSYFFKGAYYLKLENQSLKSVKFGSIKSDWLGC
Metric: pIC50
// pIC50 is dimensionless: -log10 of concentration (M)

These recorded examples may help you get a feel for the data.
>  <Compound>
Cn1ccnc1[C@]1(CNC(=O)c2cc3cc(C(F)(F)F)ccc3o2)NC(=O)NC1=O

>  <pIC50>
4.96

$$$$
>  <Compound>
Cc1cccnc1[C@]1(CNC(=O)c2cc3cc(Cl)ccc3o2)NC(=O)NC1=O (racemic)

>  <pIC50>
5.21

$$$$
>  <Compound>
Cn1ccnc1[C@]1(CNC(=O)c2cc3cc(Cl)ccc3o2)NC(=O)NC1=O

>  <pIC50>
5.12

$$$$
>  <Compound>
O=C1NC(=O)[C@](CNC(=O)c2cc3cc(Cl)ccc3o2)(c2ccccc2)N1

>  <pIC50>
5.68

$$$$

With those in mind, consider the next compound.
Summary line: "C[C@@]1(O)CCCN(S(=O)(=O)c2ccc(OCc3ccc(F)cc3Cl)cc2)[C@H]1C(=O)NO" , 72 kDa type IV collagenase (Homo sapiens), reported pIC50 = 8.30

====

Protocol: Cmax in Sprague-Dawley rat at 10 mg/kg, po
Type: ADME, organism-based
Set-up: dose 10 mg/kg, route oral
Recorded Conditions: in vivo
Metric: Cmax (ng/mL)
Could you give me the number in ng/mL? Just the number is fine.

These recorded examples may help you get a feel for the data.
>  <Cpd Smiles>
O=C1NC(=O)[C@](CNC(=O)c2cc3cc(Cl)ccc3o2)(c2nccs2)N1

>  <Unit Info>
ng/mL

>  <Cmax>
6900

$$$$
>  <Cpd Smiles>
Cn1ccnc1[C@]1(CNC(=O)c2cc3cc(Cl)ccc3o2)NC(=O)NC1=O

>  <Unit Info>
ng/mL

>  <Cmax>
4100

$$$$

With those in mind, consider the next compound.
Entry "Cn1ccnc1[C@]1(CNC(=O)c2cc3cc(C(F)(F)F)ccc3o2)NC(=O)NC1=O" — recorded Cmax = 3200

====

The reader will find reported IC50 values listed item by item below.
Assayed Target: UniProt:P08254
Sequence (P08254 whole entry): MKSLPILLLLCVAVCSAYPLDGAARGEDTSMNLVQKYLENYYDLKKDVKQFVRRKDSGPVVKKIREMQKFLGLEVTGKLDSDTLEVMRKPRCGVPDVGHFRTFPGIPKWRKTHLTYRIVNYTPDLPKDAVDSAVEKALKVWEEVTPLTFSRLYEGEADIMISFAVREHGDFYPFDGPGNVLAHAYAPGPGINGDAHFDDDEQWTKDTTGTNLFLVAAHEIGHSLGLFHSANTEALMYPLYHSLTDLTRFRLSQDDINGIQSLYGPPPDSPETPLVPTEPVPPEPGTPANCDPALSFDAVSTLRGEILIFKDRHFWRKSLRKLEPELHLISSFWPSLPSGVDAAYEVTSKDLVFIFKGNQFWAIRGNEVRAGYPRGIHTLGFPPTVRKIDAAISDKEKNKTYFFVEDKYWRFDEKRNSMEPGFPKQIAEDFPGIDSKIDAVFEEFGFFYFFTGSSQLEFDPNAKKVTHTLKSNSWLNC
Could you give me the number in µM? Just the number is fine.

>  <Compound>
Cn1ccnc1[C@]1(CNC(=O)c2cc3cc(C(F)(F)F)ccc3o2)NC(=O)NC1=O

>  <Metric>
IC50

>  <Observed Result>
69

$$$$
>  <Compound>
O=C1NC(=O)[C@](CNC(=O)c2cc3cc(Cl)ccc3o2)(c2ccccc2)N1

>  <Metric>
IC50

>  <Observed Result>
3

$$$$

With those in mind, consider the next compound.
Summary line: Cc1cccnc1[C@]1(CNC(=O)c2cc3cc(Cl)ccc3o2)NC(=O)NC1=O (racemic) , UniProt:P08254, reported IC50 = 20

====

The reader will find reported log10 of IC50 values listed item by item below.
Assayed Target: A disintegrin and metalloproteinase with thrombospondin motifs 5 (Homo sapiens)
Sequence (Q9UNA0 whole entry): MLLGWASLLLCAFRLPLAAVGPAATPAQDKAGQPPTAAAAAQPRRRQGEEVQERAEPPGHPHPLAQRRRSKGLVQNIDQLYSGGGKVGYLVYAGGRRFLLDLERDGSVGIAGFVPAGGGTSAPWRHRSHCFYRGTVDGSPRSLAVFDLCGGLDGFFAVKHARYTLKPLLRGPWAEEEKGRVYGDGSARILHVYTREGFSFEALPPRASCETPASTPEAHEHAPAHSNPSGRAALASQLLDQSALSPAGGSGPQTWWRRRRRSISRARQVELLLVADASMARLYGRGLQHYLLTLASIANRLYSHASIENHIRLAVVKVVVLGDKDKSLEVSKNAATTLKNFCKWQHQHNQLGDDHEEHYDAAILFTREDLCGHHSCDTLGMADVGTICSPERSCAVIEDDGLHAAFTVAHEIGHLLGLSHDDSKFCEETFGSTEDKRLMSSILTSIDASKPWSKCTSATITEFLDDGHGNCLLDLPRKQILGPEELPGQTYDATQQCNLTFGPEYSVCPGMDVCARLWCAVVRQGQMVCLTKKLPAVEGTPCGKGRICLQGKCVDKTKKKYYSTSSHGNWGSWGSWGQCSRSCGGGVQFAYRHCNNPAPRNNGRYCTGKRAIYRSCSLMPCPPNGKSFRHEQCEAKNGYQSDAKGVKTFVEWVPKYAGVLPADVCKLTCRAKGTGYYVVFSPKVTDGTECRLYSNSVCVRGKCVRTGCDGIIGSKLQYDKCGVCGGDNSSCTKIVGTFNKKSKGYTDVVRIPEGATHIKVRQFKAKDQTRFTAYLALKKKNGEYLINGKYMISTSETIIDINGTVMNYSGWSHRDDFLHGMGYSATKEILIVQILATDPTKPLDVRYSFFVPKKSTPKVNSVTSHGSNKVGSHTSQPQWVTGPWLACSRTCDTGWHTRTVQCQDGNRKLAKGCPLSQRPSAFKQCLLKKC
Protocol: Inhibition of human ADAMTS-5 using VQTVTWPDMELPLPRNITEGEARGSVILTVKPIFEVSPSPLKG peptide substrate by AlphaScreen assay in presence of 50% rat plasma
Hey, these are logged values: log10 of IC50, nM being the unit before logging.

>  <Compound>
Cn1nccc1[C@]1(CNC(=O)c2cc3cc(Cl)ccc3o2)NC(=O)NC1=O

>  <Observed Result>
2.72

$$$$
>  <Compound>
Cn1ccnc1[C@]1(CNC(=O)c2cc3cc(Cl)ccc3o2)NC(=O)NC1=O

>  <Observed Result>
2.04

$$$$
>  <Compound>
C[C@]1(CNC(=O)COc2ccc(Cl)cc2)NC(=O)NC1=O

>  <Observed Result>
2.79

$$$$
>  <Compound>
Cc1cccnc1[C@]1(CNC(=O)c2cc3cc(Cl)ccc3o2)NC(=O)NC1=O (racemic)

>  <Observed Result>
3.23

$$$$
>  <Compound>
C[C@@]1(O)CCCN(S(=O)(=O)c2ccc(OCc3ccc(F)cc3Cl)cc2)[C@H]1C(=O)NO

>  <Observed Result>
1.26

$$$$

Entry "Cn1ccnc1[C@]1(CNC(=O)c2cc3cc(C(F)(F)F)ccc3o2)NC(=O)NC1=O" — recorded log10 of IC50 = 1.54

Entry C[C@]1(CNC(=O)c2cc3cc(Cl)ccc3o2)NC(=O)NC1=O (racemic) — recorded log10 of IC50 = 3.38

Entry "O=C1NC(=O)[C@](CNC(=O)c2cc3cc(Cl)ccc3o2)(c2ccccc2)N1" — recorded log10 of IC50 = 2.62

====

Protocol: Metabolic stability in human liver microsomes assessed as compound degradation after 30 mins by LC-MS analysis
Assay type: ADME, Microsome
Recorded Conditions: read-out: Drug degradation
Metric: metabolised at 0.5 h (%)
Could you give me the number in %? Just the number is fine.

>  <Cpd Smiles>
Cn1ccnc1[C@]1(CNC(=O)c2cc3cc(Cl)ccc3o2)NC(=O)NC1=O

>  <metabolised at 0.5 h (%)>
17

$$$$

Entry "O=C1NC(=O)[C@](CNC(=O)c2cc3cc(Cl)ccc3o2)(c2nccs2)N1" — recorded metabolised at 0.5 h = 16

====

Assayed Target: A disintegrin and metalloproteinase with thrombospondin motifs 5 (Homo sapiens)
Protocol: Inhibition of human ADAMTS-5 using VQTVTWPDMELPLPRNITEGEARGSVILTVKPIFEVSPSPLKG peptide substrate by AlphaScreen assay
pIC50: −log10 of the molar value.
Record True whenever pIC50 is at 8 or higher; record False when lower.

input: hey, is pIC50 for this one >= 8? "C[C@]1(CNC(=O)COc2ccc(Cl)cc2)NC(=O)NC1=O"
output: False

input: hey, is pIC50 for this one >= 8? "C[C@@]1(O)CCCN(S(=O)(=O)c2ccc(OCc3ccc(F)cc3Cl)cc2)[C@H]1C(=O)NO"
output: True

====

Protocol: Metabolic stability in rat liver microsomes assessed as compound degradation after 30 mins by LC-MS analysis
Type: ADME, Microsome
Recorded Conditions: read-out: Drug degradation
The reader will find reported metabolised at 0.5 h values listed item by item below.
Could you give me the number in %? Just the number is fine.

These recorded examples may help you get a feel for the data.
>  <Cpd Smiles>
Cn1ccnc1[C@]1(CNC(=O)c2cc3cc(C(F)(F)F)ccc3o2)NC(=O)NC1=O

>  <metabolised at 0.5 h [%]>
7

$$$$
>  <Cpd Smiles>
Cn1ccnc1[C@]1(CNC(=O)c2cc3cc(Cl)ccc3o2)NC(=O)NC1=O

>  <metabolised at 0.5 h [%]>
13

$$$$

With those in mind, consider the next compound.
Entry "O=C1NC(=O)[C@](CNC(=O)c2cc3cc(Cl)ccc3o2)(c2nccs2)N1" — recorded metabolised at 0.5 h = 16
